- assay.system: Fibroblast growth factor receptor 4 (Homo sapiens, UniProt P22455, C477A)
- Sequence (P22455 22-802 C477A limits assumed): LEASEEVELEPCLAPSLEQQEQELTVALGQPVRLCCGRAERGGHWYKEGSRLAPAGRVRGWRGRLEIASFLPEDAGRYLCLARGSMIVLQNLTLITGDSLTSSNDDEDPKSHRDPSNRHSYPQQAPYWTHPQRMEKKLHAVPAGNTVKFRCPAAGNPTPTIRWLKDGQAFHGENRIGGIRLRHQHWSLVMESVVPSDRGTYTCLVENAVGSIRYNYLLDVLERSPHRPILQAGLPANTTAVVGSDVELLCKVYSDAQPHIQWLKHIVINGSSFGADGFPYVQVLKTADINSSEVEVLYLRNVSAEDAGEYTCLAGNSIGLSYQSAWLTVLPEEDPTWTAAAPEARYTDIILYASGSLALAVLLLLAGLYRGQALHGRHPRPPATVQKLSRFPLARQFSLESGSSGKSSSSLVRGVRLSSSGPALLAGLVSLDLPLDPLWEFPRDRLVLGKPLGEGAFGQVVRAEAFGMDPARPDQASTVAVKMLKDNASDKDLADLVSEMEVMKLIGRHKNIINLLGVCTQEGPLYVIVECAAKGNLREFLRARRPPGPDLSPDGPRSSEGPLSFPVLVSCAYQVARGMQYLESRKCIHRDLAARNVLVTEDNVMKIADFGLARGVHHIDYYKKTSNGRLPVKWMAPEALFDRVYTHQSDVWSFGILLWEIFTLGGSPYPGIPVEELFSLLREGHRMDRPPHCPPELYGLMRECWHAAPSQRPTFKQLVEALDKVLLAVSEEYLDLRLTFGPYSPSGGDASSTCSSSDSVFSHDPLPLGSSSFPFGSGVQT
pIC50: −log10 of the molar value.
result.type: pIC50

{"columns": ["smiles.string", "observed.value"],
 "data": [
  ["O=C(Nc1ccc(C(F)(F)F)cn1)c1cccc2cccnc12", "< 5.00"]
]}

From here, focus on the item given below.
Supply pIC50 measured with Fibroblast growth factor receptor 4 (Homo sapiens, UniProt P22455, C477A) for `O=Cc1ccc2cccc(C(=O)Nc3ccc(C(F)(F)F)cc3)c2n1` .
< 5.00

* * *

As a worked illustration, we turn to IC50 data collected for Fibroblast growth factor receptor 4 (Homo sapiens, UniProt P22455, C552A).

{"columns": ["smiles.string", "result.type", "observed.value"],
 "data": [
  ["O=Cc1ccc2cccc(C(=O)Nc3ccc(C(F)(F)F)cc3)c2n1", "IC50", "> 10 µM"]
]}

# input for lookup
Return the recorded IC50 value; entry: `O=C(Nc1ccc(C(F)(F)F)cn1)c1cccc2cccnc12`
> 10 µM
